Assay: Cytotoxicity against MDCK cells assessed as reduction in cell viability after 48 hrs by MTT assay
Assay type: toxicity, cell-based, Canis lupus familiaris
Conditions: dog
quantityKind: CC50 at 48 h (µM)
Numbers only, in µM.

State the recorded CC50 at 48 h for this entry: CC(N)C12CC3CC(CC(C3)C1)C2 (stereo unspecified) [RIMANTADINE]
350

====

Assay: Antiviral activity against Influenza A virus (A/California/07/09(H1N1)) pdm09 infected in chicken erythrocytes incubated for 1 hr with supernatants from 1 hr compound pre-treated MDCK cells infected with Influenza A virus (A/California/07/2009(H1N1)) pdm09 for 48 hrs assessed as reduction in viral replication by hemagglutination assay
Format: functional, cell-based
quantityKind: pIC50
One number for each entry, as −log10 of the molar value.

What does the data say about its pIC50? Entry: CC(N)C12CC3CC(CC(C3)C1)C2 (stereo unspecified) [RIMANTADINE]
4.36
